Values compiled from ChEMBL document CHEMBL5303573.

- ASSAY_INFO: The drug is tested on Providencia stuartii strain: ATCC25827 for biotransformation. The drug concentrations were measured before and after a 12-h incubation by liquid-chromatography-coupled mass spectrometry (LC–MS)
- EXPERIMENTAL_CONDITIONS: 2 µM

[
  {
    "COMPOUND": "CS(=O)(=O)O.O.O.O.O=C1Cc2cc(CCN3CCN(c4nsc5ccccc45)CC3)c(Cl)cc2N1 [ZIPRASIDONE MESYLATE]",
    "Bacterial Biotransformation": "Compound NOT metabolized"
  },
  {
    "COMPOUND": "COc1cc(C(=O)NCc2ccc(OCCN(C)C)cc2)cc(OC)c1OC [TRIMETHOBENZAMIDE]",
    "Bacterial Biotransformation": "Compound NOT metabolized"
  },
  {
    "COMPOUND": "CCN(CC)C(C)CN1c2ccccc2Sc2ccccc21 (centres undefined)",
    "Bacterial Biotransformation": "Compound metabolized"
  },
  {
    "COMPOUND": "COc1ccc2[nH]c([S+]([O-])Cc3ncc(C)c(OC)c3C)nc2n1 (centres undefined)",
    "Bacterial Biotransformation": "Compound metabolized"
  }
]

----------
- ASSAY_INFO: The drug is tested on Dorea formicigenerans strain: ATCC27755 for biotransformation. The drug concentrations were measured before and after a 12-h incubation by liquid-chromatography-coupled mass spectrometry (LC–MS)
- EXPERIMENTAL_CONDITIONS: 2 µM

[
  {
    "COMPOUND": "CC(C)(C)NCC(O)c1cc(Cl)c(N)c(Cl)c1 (centres undefined)",
    "Bacterial Biotransformation": "Compound NOT metabolized"
  },
  {
    "COMPOUND": "CCOC(=O)[C@H](CCc1ccccc1)N[C@@H](C)C(=O)N1CCC[C@H]1C(=O)O.O=C(O)/C=C\\C(=O)O [ENALAPRIL MALEATE]",
    "Bacterial Biotransformation": "Compound NOT metabolized"
  },
  {
    "COMPOUND": "COc1ccc(/C=C/C(=O)Nc2ccccc2C(=O)O)cc1OC",
    "Bacterial Biotransformation": "Compound NOT metabolized"
  },
  {
    "COMPOUND": "C[C@@H](CO)NC(=O)[C@@H]1C=C2c3cccc4[nH]cc(c34)C[C@H]2N(C)C1.O=C(O)/C=C\\C(=O)O [ERGONOVINE MALEATE]",
    "Bacterial Biotransformation": "Compound metabolized"
  },
  {
    "COMPOUND": "CN(C)C(=O)Oc1cccc([N+](C)(C)C)c1.[Br-] [NEOSTIGMINE BROMIDE]",
    "Bacterial Biotransformation": "Compound NOT metabolized"
  },
  {
    "COMPOUND": "CN1C(C(=O)Nc2ccccn2)=C(O)c2sccc2S1(=O)=O",
    "Bacterial Biotransformation": "Compound NOT metabolized"
  },
  {
    "COMPOUND": "COC(=O)Nc1nc2ccc(C(=O)c3ccccc3)cc2[nH]1",
    "Bacterial Biotransformation": "Compound NOT metabolized"
  },
  {
    "COMPOUND": "N[C@@H](Cc1ccc(N(CCCl)CCCl)cc1)C(=O)O",
    "Bacterial Biotransformation": "Compound metabolized"
  },
  {
    "COMPOUND": "Cc1ccccc1C(OCCN(C)C)c1ccccc1.O=C(O)CC(O)(CC(=O)O)C(=O)O (centres undefined) [ORPHENADRINE CITRATE]",
    "Bacterial Biotransformation": "Compound NOT metabolized"
  }
]

----------
- ASSAY_INFO: The drug is tested on Bacteroides xylanisolvens strain: DSM18836 for biotransformation. The drug concentrations were measured before and after a 12-h incubation by liquid-chromatography-coupled mass spectrometry (LC–MS)
- EXPERIMENTAL_CONDITIONS: 2 µM

[
  {
    "COMPOUND": "O=C1CN2Cc3c(ccc(Cl)c3Cl)N=C2N1 [ANAGRELIDE]",
    "Bacterial Biotransformation": "Compound NOT metabolized"
  },
  {
    "COMPOUND": "O=C([O-])C[C@H](O)C[C@H](O)/C=C/c1c(C2CC2)nc2ccccc2c1-c1ccc(F)cc1.O=C([O-])C[C@H](O)C[C@H](O)/C=C/c1c(C2CC2)nc2ccccc2c1-c1ccc(F)cc1.[Ca+2] [PITAVASTATIN CALCIUM]",
    "Bacterial Biotransformation": "Compound NOT metabolized"
  },
  {
    "COMPOUND": "Br.CN1CCC[C@@H]1Cc1c[nH]c2ccc(CCS(=O)(=O)c3ccccc3)cc12 [ELETRIPTAN HYDROBROMIDE]",
    "Bacterial Biotransformation": "Compound NOT metabolized"
  },
  {
    "COMPOUND": "CCCCC1=NC2(CCCC2)C(=O)N1Cc1ccc(-c2ccccc2-c2nnn[nH]2)cc1 [IRBESARTAN]",
    "Bacterial Biotransformation": "Compound metabolized"
  },
  {
    "COMPOUND": "O=P(O)(O)O.c1ccc(CN(CC2=NCCN2)c2ccccc2)cc1 [ANTAZOLINE PHOSPHATE]",
    "Bacterial Biotransformation": "Compound NOT metabolized"
  },
  {
    "COMPOUND": "CN1[C@@H]2CC[C@H]1C[C@@H](OC(=O)c1c[nH]c3ccccc13)C2 [TROPISETRON]",
    "Bacterial Biotransformation": "Compound NOT metabolized"
  },
  {
    "COMPOUND": "CCN(CC)CCOCCOC(=O)C1(c2ccccc2)CCCC1.O=C(O)CC(O)(CC(=O)O)C(=O)O [CARBETAPENTANE CITRATE]",
    "Bacterial Biotransformation": "Compound metabolized"
  }
]

----------
- ASSAY_INFO: The drug is tested on Clostridium symbiosum strain: ATCC14940 for biotransformation. The drug concentrations were measured before and after a 12-h incubation by liquid-chromatography-coupled mass spectrometry (LC–MS)
- EXPERIMENTAL_CONDITIONS: 2 µM

[
  {
    "MOLECULE": "CNC(=C[N+](=O)[O-])NCCSCc1ccc(CN(C)C)o1",
    "Bacterial Biotransformation": "Compound metabolized"
  },
  {
    "MOLECULE": "CC(C)C[C@H]1C(=O)N2CCC[C@H]2[C@]2(O)O[C@](NC(=O)[C@@H]3C=C4c5cccc6[nH]c(Br)c(c56)C[C@H]4N(C)C3)(C(C)C)C(=O)N12.CS(=O)(=O)O [BROMOCRIPTINE MESYLATE]",
    "Bacterial Biotransformation": "Compound metabolized"
  },
  {
    "MOLECULE": "CC(=O)O[C@H]1C(=O)[C@@]2(C)[C@H]([C@H](OC(=O)c3ccccc3)[C@]3(O)C[C@H](OC(=O)[C@H](O)[C@@H](NC(=O)c4ccccc4)c4ccccc4)C(C)=C1C3(C)C)[C@]1(OC(C)=O)CO[C@@H]1C[C@@H]2O",
    "Bacterial Biotransformation": "Compound NOT metabolized"
  },
  {
    "MOLECULE": "COc1ccnc(C[S+]([O-])c2nc3ccc(OC(F)F)cc3[nH]2)c1OC (stereo unspecified)",
    "Bacterial Biotransformation": "Compound metabolized"
  },
  {
    "MOLECULE": "CCOC(=O)[C@H](CCc1ccccc1)N[C@@H](C)C(=O)N1[C@H](C(=O)O)C[C@@H]2CCC[C@@H]21",
    "Bacterial Biotransformation": "Compound NOT metabolized"
  },
  {
    "MOLECULE": "CC1=C(CC(=O)O)c2cc(F)ccc2/C1=C\\c1ccc([S+](C)[O-])cc1 (stereo unspecified)",
    "Bacterial Biotransformation": "Compound NOT metabolized"
  },
  {
    "MOLECULE": "NC12CC3CC(CC(C3)C1)C2",
    "Bacterial Biotransformation": "Compound NOT metabolized"
  },
  {
    "MOLECULE": "C=CCc1ccccc1OCC(O)CNC(C)C (stereo unspecified)",
    "Bacterial Biotransformation": "Compound NOT metabolized"
  },
  {
    "MOLECULE": "COc1cc(C(=O)NCc2ccc(OCCN(C)C)cc2)cc(OC)c1OC [TRIMETHOBENZAMIDE]",
    "Bacterial Biotransformation": "Compound NOT metabolized"
  },
  {
    "MOLECULE": "CC(=O)Nc1ccc(OC(C)=O)cc1 [DIACETAMATE]",
    "Bacterial Biotransformation": "Compound metabolized"
  },
  {
    "MOLECULE": "CC(C)N(CCC(C(N)=O)(c1ccccc1)c1ccccn1)C(C)C.O=P(O)(O)O (stereo unspecified) [DISOPYRAMIDE PHOSPHATE]",
    "Bacterial Biotransformation": "Compound NOT metabolized"
  },
  {
    "MOLECULE": "O=c1[nH]c2ccccc2n1C1CCN(CCCC(c2ccc(F)cc2)c2ccc(F)cc2)CC1 [PIMOZIDE]",
    "Bacterial Biotransformation": "Compound NOT metabolized"
  },
  {
    "MOLECULE": "CC(=O)CCCCn1c(=O)c2c(ncn2C)n(C)c1=O",
    "Bacterial Biotransformation": "Compound NOT metabolized"
  },
  {
    "MOLECULE": "CC(C)c1c(CN(C)C(C)Cc2ccccc2)n(C)n(-c2ccccc2)c1=O (stereo unspecified)",
    "Bacterial Biotransformation": "Compound NOT metabolized"
  },
  {
    "MOLECULE": "Cc1nc2n(c(=O)c1CCN1CCC(c3noc4cc(F)ccc34)CC1)CCCC2",
    "Bacterial Biotransformation": "Compound metabolized"
  },
  {
    "MOLECULE": "O=C1CC2(CCCC2)CC(=O)N1CCCCN1CCN(c2ncccn2)CC1",
    "Bacterial Biotransformation": "Compound NOT metabolized"
  }
]
